These data points were gathered from paper PMC4336329.

- TEST_SYSTEM: human ether-à-go-go-related gene (hERG) potassium channel (human, UniProt Q12809);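 also: peak tail current of the secondary pulse compared with the same well before compound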
- Sequence (Q12809 whole entry, looked up): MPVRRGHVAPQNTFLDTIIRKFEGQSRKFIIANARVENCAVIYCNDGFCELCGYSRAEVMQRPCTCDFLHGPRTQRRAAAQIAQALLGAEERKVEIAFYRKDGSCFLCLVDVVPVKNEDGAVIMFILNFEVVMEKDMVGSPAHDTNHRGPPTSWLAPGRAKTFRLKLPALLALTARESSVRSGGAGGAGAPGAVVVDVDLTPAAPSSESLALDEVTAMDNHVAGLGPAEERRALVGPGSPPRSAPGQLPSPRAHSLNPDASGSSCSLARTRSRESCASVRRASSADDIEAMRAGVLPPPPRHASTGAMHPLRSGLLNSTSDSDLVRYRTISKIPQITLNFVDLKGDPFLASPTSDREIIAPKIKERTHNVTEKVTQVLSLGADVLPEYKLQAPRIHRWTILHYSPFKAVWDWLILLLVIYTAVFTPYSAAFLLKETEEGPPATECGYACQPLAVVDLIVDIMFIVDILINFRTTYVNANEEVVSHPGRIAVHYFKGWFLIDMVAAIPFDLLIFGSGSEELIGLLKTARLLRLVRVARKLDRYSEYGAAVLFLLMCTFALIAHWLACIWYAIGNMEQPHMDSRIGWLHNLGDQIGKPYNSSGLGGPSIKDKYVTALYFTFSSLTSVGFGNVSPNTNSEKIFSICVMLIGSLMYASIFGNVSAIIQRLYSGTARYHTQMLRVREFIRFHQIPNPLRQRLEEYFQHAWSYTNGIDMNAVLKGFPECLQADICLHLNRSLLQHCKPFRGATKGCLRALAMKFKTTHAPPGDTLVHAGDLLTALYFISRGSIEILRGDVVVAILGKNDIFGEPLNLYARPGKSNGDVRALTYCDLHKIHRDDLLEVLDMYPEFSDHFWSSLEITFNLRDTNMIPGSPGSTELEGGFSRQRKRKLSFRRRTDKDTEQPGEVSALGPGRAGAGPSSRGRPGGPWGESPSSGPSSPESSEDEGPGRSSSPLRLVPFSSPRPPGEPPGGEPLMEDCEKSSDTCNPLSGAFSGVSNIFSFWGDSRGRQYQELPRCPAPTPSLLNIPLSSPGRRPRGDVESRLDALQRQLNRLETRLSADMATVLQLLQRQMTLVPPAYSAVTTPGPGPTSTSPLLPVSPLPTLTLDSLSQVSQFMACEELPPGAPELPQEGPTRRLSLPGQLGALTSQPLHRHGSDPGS
- ASSAY_DETAILS: primary screen, population patch clamp on CHO cells stably expressing hERG; higher = less effect of the substance
The whole screen tested about 310,000 compounds, of which about 14,000 (4.5%) showed an effect of 50% or more. Effects have a minus sign here. The sample as a whole holds a higher share of strong results than the screen did.
This listing pairs compounds with measured hERG current change (%, negative = inhibition) at 10uM.
Answer format: numeric, % implied, no suffix.

Please review the following examples before continuing.
{"columns": ["COMPOUND", "UNIT_DESCRIPTOR", "NUMERIC_READOUT"],
 "data": [
  ["Cc1ccc(CSCC(=O)Nc2cc(S(=O)(=O)N3CCOCC3)ccc2OC(C)C)cc1", "%", -30.5],
  ["Cc1nc(SCC(=O)Nc2cccc(C(=O)O)c2)n[nH]1", "%", 24.9],
  ["CCOc1ccc(S(=O)(=O)N2CCOCC2)cc1NC(=O)CSCC(=O)Nc1ccc(C)cc1", "%", -18.2],
  ["Cc1cc(C)cc(NC(=O)CSc2nc3c(oc4ccccc43)c(=O)n2-c2ccccc2)c1", "%", -11.1],
  ["CCOC(=O)C1(Cc2cccc(F)c2)CCN(Cc2cn(CC)nc2C)CC1", "%", -38],
  ["O=C(Nc1ccc(-n2cnnn2)cc1)C1CCC1", "%", 11.3],
  ["CS(=O)(=O)N1CCC(C(=O)Nc2cc(Cl)cc(Cl)c2)CC1", "%", 4.85],
  ["Cc1cc(C)cc(NC(=O)N2CCCC2C(=O)Nc2ccc(-n3cnnn3)cc2)c1 (stereo not drawn)", "%", -54.1],
  ["COc1cc(CN2CCN(C(c3ccccc3)c3ccccc3)CC2)cc(OC)c1OC.O=C(O)C(=O)O", "%", -17.2],
  ["COc1cccc(CN2CCN(C(c3ccccc3)c3ccccc3)CC2)c1O.O=C(O)C(=O)O", "%", -64.5]
]}

// hERG current change (%, negative = inhibition) at 10uM lookup, key: O=C(O)C(=O)O.c1ccc(OCCOCCN2CCN(C(c3ccccc3)c3ccccc3)CC2)cc1
-72.7

Param item: Cc1ccccc1NC(=O)CC1c2ccccc2CC(C)(C)N1C (stereo not drawn)
4.03

Param item: O=C(NCc1cccnc1)c1ccc(=O)oc1
-8.85

Param item: CCOc1ccc(S(=O)(=O)N2CCOCC2)cc1NC(=O)CSC(=S)N1CCCC1
-63

Param item: CCN1CCN(S(=O)(=O)Cc2ccccc2)CC1
8.52

Param item: COc1ccccc1N1CCN(Cc2cccc(OC)c2OC)CC1
-12.5

Param item: CCOc1ccc(S(=O)(=O)N2CCOCC2)cc1NC(=O)C1CCC1
16.3

Param item: Cc1cccc(C)c1NC(=O)N1CCCC1C(=O)Nc1ccc(-n2cnnn2)cc1 (stereo not drawn)
-35.8
